target: MAT2A recombinant protein (Homo sapiens, UniProt P31153); test: MAT2A inhibitory activity (malachite green colorimetric enzyme assay); type: biochemical; conditions: read-out: MAT2A Inhibition
Sequence (P31153 whole entry): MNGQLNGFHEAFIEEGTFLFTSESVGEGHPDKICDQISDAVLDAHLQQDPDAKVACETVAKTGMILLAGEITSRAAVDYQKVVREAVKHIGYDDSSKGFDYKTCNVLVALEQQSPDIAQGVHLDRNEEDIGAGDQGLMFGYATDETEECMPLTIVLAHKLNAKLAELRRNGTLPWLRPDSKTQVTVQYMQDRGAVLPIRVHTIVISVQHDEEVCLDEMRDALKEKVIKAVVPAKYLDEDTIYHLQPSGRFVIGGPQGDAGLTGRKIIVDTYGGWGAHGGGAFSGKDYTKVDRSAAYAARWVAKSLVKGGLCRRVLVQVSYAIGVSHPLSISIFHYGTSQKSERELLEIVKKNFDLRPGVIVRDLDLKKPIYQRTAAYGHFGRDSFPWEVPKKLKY
REPORTED_METRIC: IC50 (nM)

> print(dat)
                                   molecule                       experimental.target  reported.metric  value
1  O=c1c2nn(C(F)F)cc2c2ccc(Cl)cc2n1-c1cccnc1  MAT2A recombinant protein (Homo sapiens, UniProt P31153)             IC50     18
2   Cc1nnc2c(=O)n(-c3cccnc3)c3cc(Cl)ccc3n12  MAT2A recombinant protein (Homo sapiens, UniProt P31153)             IC50    908
3  Cn1cc2c(n1)c(=O)n(-c1cccnc1)c1nc(Cl)ccc21  MAT2A recombinant protein (Homo sapiens, UniProt P31153)             IC50    102

A: Cn1cc2c(n1)c(=O)n(-c1ccc3ncoc3c1)c1cc(Cl)ccc21
B: Cn1cnc2c(=O)n(-c3cccnc3C(F)(F)F)c3cc(Cl)c(F)cc3c21
Ask: Please choose the item with the lower IC50 value from this pair: A and B // output: label of the selected item
Result: B
(B: 26 nM, A: 178 nM)

1: CCn1cc2c(n1)c(=O)n(Cc1c[nH]cn1)c1cc(Cl)ccc21
2: O=c1c2nn(C3CCOC3)cc2c2ccc(C(F)(F)F)nc2n1-c1cccnc1 (stereo not drawn)
Ask: Thinking about recorded IC50 values, which is higher, 1 or 2 ? Your choice should be expressed through its label.
Result: 1
(1: 149 nM, 2: 67.4 nM)

1: CCn1nc2c(=O)n(-c3cccnc3)c3cc(Cl)ccc3c2c1C(F)(F)F
2: Cn1cc2c(n1)c(=O)n(-c1ccccc1Cl)c1nc(C(F)(F)F)ccc21
Ask: Which has the higher IC50, 1 or 2 ? Your choice should be expressed through its label.
Result: 1
